Measurement Description: Inhibition of P-gp (unknown origin) expressed in human LCC6MDR cells assessed as reversal of paclitaxel resistance after 5 days by MTS/PMS assay
Readout Name: pEC50
One number for each entry, as −log10 of the molar value.

Reference set (3 entries):
Request: # lookup: pEC50 of `O=c1cc(-c2ccc(OCCCc3cn(CCOCCOc4ccc5c(=O)cc(-c6ccccc6)oc5c4)nn3)cc2)oc2cc(F)ccc12`
Result: 7.16

Request: Next up: `COC(=O)c1cccc(COc2c(-c3ccc(OCCOCCn4cc(CN5CCN(Cc6cn(CCOCCOc7ccc(-c8oc9ccccc9c(=O)c8OCc8cccc(C(=O)OC)c8)cc7)nn6)CC5)nn4)cc3)oc3ccccc3c2=O)c1`
Result: 6.17

Request: Next up: `O=c1cc(-c2ccccc2)oc2cc(OCCCCc3cn(CCOCCOCCOc4ccc(-c5cc(=O)c6cc(F)ccc6o5)cc4)nn3)ccc12`
Result: 6.49

Kindly review the next compound as well.
Request: # lookup: pEC50 of `COC(=O)c1cccc(COc2c(-c3ccc(OCCOCCOCCn4cc(CCCCOc5ccc6c(=O)cc(-c7ccccc7)oc6c5)nn4)cc3)oc3ccccc3c2=O)c1`
Result: 6.55

---

Measurement Description: Inhibition of P-gp (unknown origin) expressed in human LCC6MDR cells assessed as reversal of paclitaxel resistance after 5 days by MTS/PMS assay
EC50 vs 300 nM: less than gives met; not less than gives not met.

Worked cases, answers included:
Request: A record lists `COC(=O)c1cccc(COc2c(-c3ccc(OCCOCCOCCn4cc(CN(Cc5ccccc5)Cc5cn(CCOCCOCCOc6ccc(-c7oc8ccccc8c(=O)c7OCc7cccc(C(=O)OC)c7)cc6)nn5)nn4)cc3)oc3ccccc3c2=O)c1` . Is its EC50 below 300 nM?
Result: not met

Request: Next up: `O=c1cc(-c2ccccc2)oc2cc(OCCCc3cn(CCOCCOCCOc4ccc(-c5oc6ccccc6c(=O)c5OCc5ccccc5)cc4)nn3)ccc12`
Result: met

Continuing:
Request: A record lists `O=c1cc(-c2ccccc2)oc2cc(OCCOCCn3cc(COCCOc4ccc5c(=O)cc(-c6ccccc6)oc5c4)nn3)ccc12` . Is its EC50 below 300 nM?
Result: not met

Request: Next up: `O=c1cc(-c2ccccc2)oc2cc(OCCN(Cc3ccccc3)Cc3cn(CCOCCOCCOc4ccc(-c5cc(=O)c6cc(F)ccc6o5)cc4)nn3)ccc12`
Result: not met

---

Measurement Description: Inhibition of P-gp (unknown origin) expressed in human LCC6MDR cells assessed as reversal of paclitaxel resistance after 5 days by MTS/PMS assay
Readout Name: pEC50
Numbers only, as −log10 of the molar value.

Parameter requested: pEC50. Apply to each item below.
1. O=c1cc(-c2ccccc2)oc2cc(OCCOCc3cn(CCOCCOCCOc4ccc(-c5cc(=O)c6cc(F)ccc6o5)cc4)nn3)ccc12
2. O=c1cc(-c2ccc(OCCOCCn3cc(COCCOc4ccc5c(=O)cc(-c6ccccc6)oc5c4)nn3)cc2)oc2ccccc12
3. O=c1cc(-c2ccccc2)oc2cc(OCCCCc3cn(CCOCCOc4ccc(-c5cc(=O)c6cc(F)ccc6o5)cc4)nn3)ccc12
4. COC(=O)c1cccc(COc2c(-c3ccc(OCCOCCOCCn4cc(CCCOc5ccc(-c6cc(=O)c7ccc(F)cc7o6)cc5)nn4)cc3)oc3ccccc3c2=O)c1
5. Cc1ccc2oc(-c3ccc(OCCOCCOCCn4cc(COCCOc5ccc6c(=O)cc(-c7ccccc7)oc6c5)nn4)cc3)cc(=O)c2c1

Result:
[6.01, 6.02, 6.58, 6.61, 6.11]

Request: # lookup: pEC50 of `COC(=O)c1cccc(COc2c(-c3ccc(OCCOCCOCCn4cc(COCCOc5ccc6c(=O)cc(-c7ccccc7)oc6c5)nn4)cc3)oc3ccccc3c2=O)c1`
Result: 6.50
